Target: Ubiquitin-activating enzyme e1, putative (Leishmania donovani (strain BPK282A1))
Assay: Leishmania donovani Ubiquitin Activating Enzyme (LdE1)
Format: functional
Parameters: scale not given: direction of the effect not stated beside the values
Details: 30 µM
Potency and affinity values are given separately.

molecule	subject.of.test	units.symbol	Percent Effect
O=C(O)c1coc(COc2cccc(F)c2)n1	Ubiquitin-activating enzyme e1, putative (Leishmania donovani (strain BPK282A1))	%	16.2
Cc1nn(C)c(C)c1C1CCCN1CCCc1nc2ccccc2o1 (configuration not stated)	Ubiquitin-activating enzyme e1, putative (Leishmania donovani (strain BPK282A1))	%	8.11
CN1CCCc2cc(CNC(=O)c3ccc(NC4CC4)nc3)ccc21	Ubiquitin-activating enzyme e1, putative (Leishmania donovani (strain BPK282A1))	%	6.33
CCc1nnc2n1CCN(C(=O)c1ccc3[nH]cnc3c1)C2	Ubiquitin-activating enzyme e1, putative (Leishmania donovani (strain BPK282A1))	%	12.5
O=C(N[C@@H]1CN(c2ncccn2)C[C@@H]2CCCO[C@@H]21)c1cnccn1	Ubiquitin-activating enzyme e1, putative (Leishmania donovani (strain BPK282A1))	%	8
Cc1ccc(CCC(=O)N(C)CCN2CCOCC2)c(C)c1	Ubiquitin-activating enzyme e1, putative (Leishmania donovani (strain BPK282A1))	%	-5.26
Cc1ccccc1CSc1nc(N)cc(N2CC[C@@H](O)C2)n1	Ubiquitin-activating enzyme e1, putative (Leishmania donovani (strain BPK282A1))	%	16.2
CCOC(C)c1nc(CN2CCNCC2)cs1 (configuration not stated)	Ubiquitin-activating enzyme e1, putative (Leishmania donovani (strain BPK282A1))	%	-8.11
CC(=O)N1CCCN(c2nccc(-c3cn(C)nc3C)n2)CC1	Ubiquitin-activating enzyme e1, putative (Leishmania donovani (strain BPK282A1))	%	5.33
CC(NC(=O)Cn1cccn1)c1ccc2c(c1)OCCCO2 (configuration not stated)	Ubiquitin-activating enzyme e1, putative (Leishmania donovani (strain BPK282A1))	%	28.6
Cc1cnn(CCNCc2ccccc2OCc2cccnc2)c1	Ubiquitin-activating enzyme e1, putative (Leishmania donovani (strain BPK282A1))	%	-3.8
Cc1nnc2n1CCN(C(=O)c1cc(Cl)c(Cl)n1C)C2	Ubiquitin-activating enzyme e1, putative (Leishmania donovani (strain BPK282A1))	%	5.26

* * *

Species: Homo sapiens
Experiment: To identify inhibition of the IFN signalling (Jak-Stat) pathway via expression of an eGFP reporter gene under the control of an IFN-stimulated response element (ISRE) containing MxA promoter.
Format: functional
Parameters: scale not given: direction of the effect not stated beside the values
Conditions: 30 µM
Consider the following molecules and their measured Percent Effect readings.

molecule	Percent Effect (%)
CC(Cn1cccn1)NC(=O)Nc1ccc(N(C)C)nc1 (configuration not stated)	10.8
Cc1noc(C(C)N2CCN(CC(=O)N3CCOCC3)CC2)n1 (configuration not stated)	-8.61
Cc1cc(C)n(CC2CCCN2C(=O)CCCNc2ncccn2)n1 (configuration not stated)	-8.34
Cc1nc(CN2CCCC(N(C)CCc3ccncc3)C2)no1 (configuration not stated)	24.3
O=C(COCC1CC1)N1CCCC(n2ccnc2)C1 (configuration not stated)	5.7
CN1CCN(Cc2cscn2)CC(C(=O)N(C)C)C1 (configuration not stated)	5.65
CCC(C)(NCC(=O)Nc1ccccc1)c1nc(C)cs1 (configuration not stated)	-24.9
CCn1cnnc1C1CCN(C(=O)c2ccccc2OC)CC1	25.9
CN(C)C(=O)N1CCc2c(nnn2C)C1COCc1ccccc1 (configuration not stated)	-0.202
O=C(Cn1nc2c(cc1=O)CCCC2)N[C@@H](Cc1ccccc1)C(=O)O	24.4
Cc1csc(CNC(=O)NC2CCN(c3ncccn3)CC2)n1	5.21
Cc1cc(N2CCN(CC(=O)N(C)C)CC2)nc(-c2ccncc2)n1	5.2
